// provenance: the supplement of paper PMC11061612

- Tested on: SW13 (Other Solid Carcinomas)
- experiment: Bliss excess, mean over the matrix (fraction); higher = more synergy
assay endpoint: Bliss excess

Report Bliss excess, nothing else, for this compound: Cc1nc(-c2cn3c(n2)-c2ccc(-c4cnn(C(C)(C)C(N)=O)c4)cc2OCC3)n(C(C)C)n1 [Taselisib] + O=C(Nc1ccc2[nH]nc(-c3ccncc3)c2c1)[C@@H]1CCN(CC(=O)N2CCN(c3ccc(-c4ncccn4)cc3)CC2)C1 [SCH772984] (first compound max 10 µM, 7x7, partner max 5 µM)
0.334

Now take the following compound into account.
# return recorded Bliss excess for input O=C(c1cc(Cc2n[nH]c(=O)c3ccccc23)ccc1F)N1CCN(C(=O)C2CC2)CC1 [Olaparib] + CN(CC[C@H](CSC1=CC=CC=C1)NC2=C(C=C(C=C2)S(=O)(=O)NC(=O)C3=CC=C(C=C3)N4CCC(CC4)[C@H](C5=CC=CC=C5C6=CC=C(C=C6)Cl)O)S(=O)(=O)C(F)(F)F)CCO [AZD4320] (first compound max 10 µM, 7x7, partner max 1 µM)
-0.0566

* * *

- System: NB69 (Neuroblastoma)
- experiment: combination Emax (second highest fraction inhibited in the dose matrix, 72 h); higher = more inhibition; extreme values may be limits of the assay
assay endpoint: combination Emax
# print the numeric value only

Give the measured combination Emax for CS(=O)(=O)CCNCc1ccc(-c2ccc3ncnc(Nc4ccc(OCc5cccc(F)c5)c(Cl)c4)c3c2)o1 [Lapatinib] + Cn1cnc2c(F)c(Nc3ccc(Br)cc3Cl)c(C(=O)NOCCO)cc21 [Selumetinib] (first compound max 10 µM, 7x7, partner max 10 µM)
0.916

Look up and state reported combination Emax for Cc1cc2ncnn2cc1Nc1ncc2c(n1)n(C1CCOCC1)c(=O)n2C [AZD7648] + O=C(c1cc(Cc2n[nH]c(=O)c3ccccc23)ccc1F)N1CCN(C(=O)C2CC2)CC1 [Olaparib] (first compound max 10 µM, 7x7, partner max 10 µM)
0.541

* * *

- Test system: NCI-H727 (Other Solid Carcinomas)
- experiment: Bliss excess, mean over the matrix (fraction); higher = more synergy
Label Satisfied for high-side Bliss excess (at or above -0.05) and Not satisfied for low-side Bliss excess (below it).

Determine whether measured Bliss excess meets or exceeds -0.05 for CN(CCO)CC[C@H](CSc1ccccc1)Nc1ccc(S(=O)(=O)NC(=O)c2ccc(N3CCC([C@@H](O)c4ccccc4-c4ccc(Cl)cc4)CC3)cc2)cc1S(=O)(=O)C(F)(F)F [AZD4320] + C[C@@H]1COCCN1C2=NC(=NC(=C2)C3(CC3)[S@](=N)(=O)C)C4=C5C=CNC5=NC=C4 [AZD6738] (first compound max 1 µM, 7x7, partner max 10 µM)
Not satisfied

* * *

- Test system: Caov-4 (Ovarian Carcinoma)
- experiment: combination Emax (second highest fraction inhibited in the dose matrix, 72 h); higher = more inhibition; extreme values may be limits of the assay
assay endpoint: combination Emax
Reply: number alone, nothing else.

Output measured combination Emax for this item: CC1(C)CCC(CN2CCN(c3ccc(C(=O)NS(=O)(=O)c4ccc(NCC5CCOCC5)c([N+](=O)[O-])c4)c(Oc4cnc5[nH]ccc5c4)c3)CC2)=C(c2ccc(Cl)cc2)C1 [Venetoclax] + Cn1cnc2c(F)c(Nc3ccc(Br)cc3Cl)c(C(=O)NOCCO)cc21 [Selumetinib] (first compound max 1 µM, 7x7, partner max 3 µM)
0.364

Further cases:
Using the record for C=CCn1c(=O)c2cnc(Nc3ccc(N4CCN(C)CC4)cc3)nc2n1-c1cccc(C(C)(C)O)n1 [AZD1775] + O=C(c1cc(Cc2n[nH]c(=O)c3ccccc23)ccc1F)N1CCN(C(=O)C2CC2)CC1 [Olaparib] (first compound max 1 µM, partner max 10 µM) , state its measured combination Emax.
0.779
